system: Meloidogyne incognita; test: Average percent inhibition of nematode pest Meloidogyne incognita induced root galling of treated soil medium at 7.8 ppm; type: functional
Below, each of the compounds is paired with its reported inhibition at 7.8 ppm value.
propertyName: inhibition at 7.8 ppm (%)

compound | propertyName | assayResult
C=C1C(CC(=O)OCCCCCCCCCCCCCCCC)C1(F)F (stereo not drawn) | inhibition at 7.8 ppm | 0
C=C1C(CC(=O)O)C1(F)F (stereo not drawn) | inhibition at 7.8 ppm | 0
C=C1CC1CC(=O)OCCCCCCCCCCCCCCCC (stereo not drawn) | inhibition at 7.8 ppm | 50

====

tested on: Meloidogyne incognita; test: Average percent inhibition of nematode pest Meloidogyne incognita induced root galling of treated soil medium at 7.8 ppm; type: functional

compound | unitOfMeasurement | inhibition at 7.8 ppm
C=C1CC1CC(N)=O (stereo not drawn) | % | 0
C=C1CC1CCOC(=O)c1ccc(OCC)cc1 (stereo not drawn) | % | 0
C=C1CC1CC(=O)OCc1cccc(Oc2ccccc2)c1 (stereo not drawn) | % | 0
C=C1CC1CCN (stereo not drawn) | % | 0
C=C1C(CC(=O)OCc2cccc(Oc3ccccc3)c2)C1(F)F (stereo not drawn) | % | 0
C=C1CC1CC(=O)O (stereo not drawn) | % | 15
C=C1CC1CCSC1=NCCS1 (stereo not drawn) | % | 25
CC1CC1CC(=O)O (stereo not drawn) | % | 0
